Task for the reader: assign each of the following binders its reported pKi.
Target: Sushi domains (SD1/2) protein of GABAB1a (GB1a)
Sequence (Q9Z0U4 29-158): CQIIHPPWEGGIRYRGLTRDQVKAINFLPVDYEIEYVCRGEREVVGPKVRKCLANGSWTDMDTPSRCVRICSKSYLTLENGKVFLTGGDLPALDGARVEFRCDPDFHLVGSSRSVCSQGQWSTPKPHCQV
Assay: FP competition vs TAMRA AJAP-1probe
Starred links: 1 amine or outer side, 2 acyl side, 3 side chain; linkers in the order of their positions; H or OH if unused. Non-standard residues stand in square brackets, D forms with d. Oetyr = O-ethyl-L-tyrosine, CCOc1ccc(C[C@H](N[*:1])C(=O)[*:2])cc1; Sar = CNCC(=O)O
Convention used: pKi is expressed as -log10 of the molar concentration.

Ask: Any idea what its pKi is? The binder is Ac-EDDSWVWWG[Sar]ADTD-NH2 (SMILES CC(=O)N[C@@H](CCC(=O)O)C(=O)N[C@@H](CC(=O)O)C(=O)N[C@@H](CC(=O)O)C(=O)N[C@@H](CO)C(=O)N[C@@H](Cc1c[nH]c2ccccc12)C(=O)N[C@H](C(=O)N[C@@H](Cc1c[nH]c2ccccc12)C(=O)N[C@@H](Cc1c[nH]c2ccccc12)C(=O)NCC(=O)N(C)CC(=O)N[C@@H](C)C(=O)N[C@@H](CC(=O)O)C(=O)N[C@H](C(=O)N[C@@H](CC(=O)O)C(N)=O)[C@@H](C)O)C(C)C) […(N-Me-G)ADTD]
Reply: 7.44

Ask: Any idea what its pKi is? The binder is Ac-RRRRRRRRGGGGSEDDDWIDWYDSDDD-NH2 [R8-FL-16]
Reply: 6.55

Ask: Any idea what its pKi is? The binder is Ac-RRRRRRRREDDDWIDWGPTSDDD-NH2 [R8-17]
Reply: 7.24

Ask: Any idea what its pKi is? The binder is Ac-EDDD[Oetyr]IDWGPTSDDD-NH2 (SMILES CCOc1ccc(C[C@H](NC(=O)[C@H](CC(=O)O)NC(=O)[C@H](CC(=O)O)NC(=O)[C@H](CC(=O)O)NC(=O)[C@H](CCC(=O)O)NC(C)=O)C(=O)N[C@H](C(=O)N[C@@H](CC(=O)O)C(=O)N[C@@H](Cc2c[nH]c3ccccc23)C(=O)NCC(=O)N2CCC[C@H]2C(=O)N[C@H](C(=O)N[C@@H](CO)C(=O)N[C@@H](CC(=O)O)C(=O)N[C@@H](CC(=O)O)C(=O)N[C@@H](CC(=O)O)C(N)=O)[C@@H](C)O)[C@@H](C)CC)cc1) [peptide 34]
Reply: 8.19

Ask: Any idea what its pKi is? The binder is Ac-DAIVWGPTVSRED-NH2 [… (SEQ ID NO: 341)]
Reply: 6.15

Ask: Any idea what its pKi is? The binder is Ac-PDAIVWGPTVSRED-NH2
Reply: 6.17

Ask: Any idea what its pKi is? The binder is Ac-FIVWGPTVSRED-NH2
Reply: 6.44

Ask: Any idea what its pKi is? The binder is Ac-PWFIVWGPTVSDED-NH2
Reply: 6.72
